Assay: chemical genetic growth profiling, strain panel (AID 1159580);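 further: tested at 20 µM; growth read once vehicle control cultures reached saturation at 30 °C; 1 = growth at the plate median or of vehicle wells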
Details: S. cerevisiae deletion strains, growth OD, locus YKL009W, strain mrt4
About 2,000 (36%) of roughly 5,500 compounds were called active. Another 18% or so got no clear call; they are omitted. No stated cut-off is given here; in the data, active means normalized growth mostly below about 0.91 (no sharp cut-off); inconclusive means no clear call, values can overlap the other calls; inactive means mostly above about 0.92. Some of the results follow.
Response enum: 1 (yes) for active, 0 (no) for inactive

Completed entries (count: 5):
                                   molecule  assigned_label
0  Cc1cc(O)c(C=O)c2c1C(=O)Oc1c(COC(=O)/C=C/C(=O)O)c(O)c(C(=O)O)c(C)c1O2          0 (no)
1  Cc1cc2c(C(C)C)c(O)c(O)c(C=O)c2c(O)c1-c1c(C)cc2c(C(C)C)c(O)c(O)c(C=O)c2c1O         1 (yes)
2               CC12CC3CC(C)(C1)CC(N)(C3)C2          0 (no)
3  COc1cc(S(C)=O)ccc1-c1nc2ncccc2[nH]1 (stereo not given)          0 (no)
4  Cc1cc(O)c(C=O)c2c1C(=O)Oc1c(C)c(O)c3c(c1O2)C(O)OC3=O (stereo not given)          0 (no)

Query: Assay outcome for C[C@H](N)[C@H](O)c1ccccc1 : what was it?
Result: 0 (no)

Query: Hi team, can someone confirm the assay call for S=P(N1CC1)(N1CC1)N1CC1 ?
Result: 0 (no)

Query: Given CCCCSP(=O)(SCCCC)SCCCC , state the outcome it received in this test.
Result: 0 (no)

Query: # lookup: test call for COc1c2ccoc2nc2c(OC)c(OCC(O)C(C)(C)O)ccc12 (stereo not given)
Result: 0 (no)

Query: recorded result category for CN(C)C(=O)Nc1ccc(Cl)c(Cl)c1 in this test
Result: 0 (no)

Query: Which outcome did this test record for the molecule CO[C@]12C[C@@H](COC(=O)c3cncc(Br)c3)CN(C)[C@@H]1Cc1cn(C)c3cccc2c13 ?
Result: 0 (no)

Query: Recorded test outcome, item CN1CC(CNC(=O)OCc2ccccc2)CC2c3cccc4c3c(cn4C)CC21 (stereo not given)
Result: 0 (no)

Query: Could you please tell me the result logged for COc1c2ccccc2nc2occc12 in this assay?
Result: 0 (no)

Query: I'd appreciate the recorded outcome for C[C@@H](N)[C@@H](O)c1ccccc1 from this test.
Result: 0 (no)

Query: Field: outcome | Entry: C[C@H](N)[C@H](O)c1cccc(O)c1
Result: 0 (no)

Query: Please let me know the test result on file for C[C@H](CCC(=O)O)[C@H]1CCC2C3C(CC[C@@]21C)[C@@]1(C)CC[C@@H](O)C[C@H]1C[C@H]3O (stereo not given in full) .
Result: 0 (no)

Query: Kindly provide the recorded test outcome for the following molecule: Cc1cccc(Nc2ccncc2S(=O)(=O)NC(=O)NC(C)C)c1
Result: 0 (no)

----------
Test: chemical genetic growth profiling, strain panel (AID 1159580);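 further: tested at 20 µM; growth read once vehicle control cultures reached saturation at 30 °C; 1 = growth at the plate median or of vehicle wells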
Conditions: S. cerevisiae deletion strains, growth OD, locus YOR270C, strain vph1, stronger effect = lower value
The campaign covered roughly 5,500 compounds. About 2,000 (36%) were called active. About 18% were inconclusive and are not listed. This is one part of the list.
Reported normalized growth values are given for each entry in this list.

Would you please look over these solved cases?
In [3]: df
Out[3]:
                                   compound     property_label          measured
0  COc1ccc(C(=O)CC(=O)c2ccc(C(C)(C)C)cc2)cc1  normalized growth  0.827 (inactive)
1                   O=C(Nc1ccccc1)Nc1ccccc1  normalized growth  0.875 (inactive)
2  CC1=C2[C@H]3OC(=O)[C@@H](C)[C@@H]3CC[C@@]2(C)C=CC1=O  normalized growth  0.926 (inactive)

Query: Complete the entry with normalized growth for NS(=O)(=O)c1cc2c(cc1Cl)NC(C1CC3C=CC1C3)NS2(=O)=O (centres undefined)
Result: 0.984 (inactive)

Query: Recall and state the measured normalized growth for CC(=O)Nc1ccccc1 .
Result: 0.927 (inactive)

Query: Name the recorded normalized growth of the compound listed here: CN(C)N=Nc1nc[nH]c1C(N)=O
Result: 0.988 (inactive)

Query: Please give the documented normalized growth of CC1(C)C(O)CC(O)C2(C)C1CC(O)C1(C)C2CCC2(C)C(c3ccoc3)OC(=O)C3OC321 (centres undefined)
Result: 0.914 (inactive)

Query: Please give the documented normalized growth of O=c1[nH]cnc2[nH]ncc12
Result: 1.08 (inactive)

Query: Provide normalized growth value for the following compound: COc1c(Cl)ccc(Cl)c1C(=O)O
Result: 0.993 (inactive)

----------
We begin with a simple list: items and their reported normalized growth.
Assay: chemical genetic growth profiling, strain panel (AID 1159580);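 further: tested at 20 µM; growth read once vehicle control cultures reached saturation at 30 °C; 1 = growth at the plate median or of vehicle wells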
Settings: S. cerevisiae deletion strains, growth OD, locus YAL040C, strain CLN3, stronger effect = lower value
The campaign covered roughly 5,500 compounds. About 2,000 (36%) were called active. Another 18% or so got no clear call; they are omitted. The list shows a part of the results.

                                   compound          measured
0  Cc1nc2sccn2c(=O)c1CCN1CCC(=C(c2ccc(F)cc2)c2ccc(F)cc2)CC1      1 (inactive)
1   C[C@H]1C2Cc3ccc(O)cc3[C@]1(C)CCN2CC1CC1  0.994 (inactive)
2        CCO/C([O-])=N/c1c[n+](N2CCOCC2)no1   0.99 (inactive)

Query: Respond only with normalized growth recorded for CN1CCN(c2nc3cc(C(F)(F)F)ccc3n3cccc23)CC1
Result: 1 (inactive)

Query: Dear colleague, please send me the reported normalized growth for C[C@]12N[C@H](Cc3ccccc31)c1ccccc12 when you can.
Result: 1.04 (inactive)

Query: Input NC(=NCCCC(N)C(=O)O)N[N+](=O)[O-] (stereo unspecified) , output reported normalized growth.
Result: 0.999 (inactive)

Query: Given NS(=O)(=O)c1cccc2c1c([N+](=O)[O-])cc1nc(O)c(O)nc12 , respond with its normalized growth.
Result: 1.08 (inactive)

Query: Quote normalized growth reported for COc1ccc(CCN(C)CCc2ccc(OC)c(OC)c2)cc1OC please.
Result: 1.08 (inactive)

Query: Fill in reported normalized growth for this entry: O=[N+]([O-])c1cccc2cn[nH]c12
Result: 0.985 (inactive)

Query: Fill in normalized growth for record CCN1CCC[C@H]1CNC(=O)c1c(OC)ccc(I)c1O
Result: 1.01 (inactive)

Query: Please give measured normalized growth of the following entry: O=c1cc(-c2ccc(O)c(O)c2)oc2cc(O)cc(O)c12
Result: 1.02 (inactive)

----------
Assay: chemical genetic growth profiling, strain panel (AID 1159580);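 further: tested at 20 µM; growth read once vehicle control cultures reached saturation at 30 °C; 1 = growth at the plate median or of vehicle wells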
Settings: S. cerevisiae deletion strains, growth OD, locus YLR262C, strain YPT6 (second series), stronger effect = lower value
The campaign covered roughly 5,500 compounds. About 2,000 (36%) were called active. Not shown: some 18% with an inconclusive outcome. Some of the results follow.
Property label: normalized growth

Compound	normalized growth
CC(CCC(=O)O)[C@H]1CCC2C3CC[C@@H]4C[C@H](O)CC[C@]4(C)C3CC[C@@]21C (stereo partly drawn)	0.488 (active)
COc1c2ccoc2nc2c(OC)c(OCC(O)C(C)(C)O)ccc12 (stereo not drawn)	1.04 (inactive)
CC(CCC(=O)O)[C@H]1CCC2C3CC[C@@H]4C[C@H](O)CC[C@]4(C)C3C[C@H](O)[C@@]21C (stereo partly drawn)	0.935 (inactive)
CN(C)N=Nc1nc[nH]c1C(N)=O	0.97 (inactive)

Query: Identify the reported normalized growth for the following entry. C[C@H](CCC(=O)O)[C@H]1CCC2C3C(CC[C@@]21C)[C@@]1(C)CC[C@@H](O)C[C@H]1C[C@H]3O (stereo partly drawn)
Result: 0.799 (active)

Query: For CC(C)CCCC(C)C1CCC2C3CC[C@H]4CCCC[C@]4(C)C3CC[C@]12C (stereo partly drawn) , write its normalized growth.
Result: 1.02 (inactive)

Query: Return value of normalized growth for input Nc1ccncc1 , no commentary.
Result: 0.971 (inactive)

Query: Find the measured normalized growth of CC(CCC(=O)O)[C@H]1CCC2C3C[C@H](O)[C@@H]4C[C@H](O)CC[C@]4(C)C3CC[C@@]21C (stereo partly drawn) and report it.
Result: 0.984 (inactive)

Query: Write down normalized growth measured for item COc1cc([C@@H]2c3cc4c(cc3[C@H](OC(C)=O)[C@H]3COC(=O)[C@@H]23)OCO4)cc(OC)c1OC
Result: 0.956 (inactive)

Query: Please give the documented normalized growth of CC(=O)OCC(=O)[C@@]1(O)[C@H](OC(C)=O)CC2C3CCC4=CC(=O)C=C[C@]4(C)[C@@]3(F)[C@@H](O)C[C@@]21C (stereo partly drawn)
Result: 1.01 (inactive)

Query: Report normalized growth, nothing else, for this compound: Nc1cc(-c2ccncc2)c[nH]c1=O
Result: 1.01 (inactive)

Query: Output measured normalized growth for this item: CC1CCC2(OC1)OC1CC3C4CCC5C[C@@H](O)CCC5(C)C4=CCC3(C)C1[C@@H]2C (stereo partly drawn)
Result: 1.1 (inactive)

Query: Tell us which normalized growth value is on record for CN[C@@H]1[C@H](OC2[C@H](O[C@H]3[C@H](O)[C@@H](O)[C@H](N=C(N)N)[C@@H](O)[C@@H]3N=C(N)N)O[C@@H](C)[C@]2(O)C=O)O[C@@H](CO)[C@H](O)[C@H]1O (stereo partly drawn)
Result: 1.04 (inactive)

Query: Given C[C@H](CCC(=O)O)[C@H]1CCC2C3C(CC[C@@]21C)[C@@]1(C)CC[C@@H](O)C[C@H]1C[C@@H]3O (stereo partly drawn) , respond with its normalized growth.
Result: 0.795 (active)

Query: Check the records and state normalized growth for COC(=O)CCC(C)[C@H]1CCC2C3C(C[C@H](O)[C@@]21C)[C@@]1(C)CC[C@@H](O)C[C@H]1C[C@H]3O (stereo partly drawn)
Result: 1.02 (inactive)

Query: Using known records, supply normalized growth for O=C(Nc1ccccc1)Nc1ccccc1
Result: 0.96 (inactive)

Query: Look up normalized growth of CC(CCC(=O)O)[C@H]1CCC2C3CC[C@@H]4CCCC[C@]4(C)C3CC[C@@]21C (stereo partly drawn) and report it.
Result: 1.05 (inactive)

Query: Return normalized growth (reported value) for this compound: COc1c2ccccc2nc2occc12
Result: 0.884 (inactive)
